- System: MCF7 breast
- Method Summary: NCI-60 one-dose screen, 48 h (100 = growth as untreated, 0 = no growth, -100 = all killed)
- Experimental Conditions: 10 µM unless noted
This is part of a sample that, as a whole, favours compounds with a hit. Of some 83,000 tested, about 20% had one in any assay.
This listing pairs compounds with measured growth.
Respond numerically; units are % and should not be typed.

// worked examples, growth included
O=C(COCc1c(-c2ccccc2)no[n+]1[O-])Nc1ccc(C(=O)/C=C/c2ccc3c(c2)OCO3)cc1
92.2
COc1cc(-c2c3sc(=O)[nH]c3nc3c2c(=O)[nH]n3C(C)C)cc2c1OCO2
91.7

Record CCOC(=O)c1cnc2cc(Cl)c(F)cc2c1Nc1cccc(NS(C)(=O)=O)c1 ; system MCF7 breast; growth = 92.5
